- system-name: Serine/threonine-protein kinase PAK 1 (Homo sapiens)
- test-parameters: at 0.1 µM
quantity-name: inhibition (%)
Write the answer as a number in %, unit excluded.

Quote inhibition with test system Serine/threonine-protein kinase PAK 1 (Homo sapiens) for COc1cc(/C=N/Nc2ncnc3[nH]ncc23)ccc1O
1.82

Find inhibition for COc1cc(Nc2nccc(Nc3ccc4c(C)n[nH]c4c3)n2)cc(OC)c1OC on Serine/threonine-protein kinase PAK 1 (Homo sapiens) and write it down.
2.19

Output reported inhibition of the compound CC(=O)NCc1cccc(C#Cc2cncnc2Nc2ccc(OCc3cccc(F)c3)c(Cl)c2)c1 on Serine/threonine-protein kinase PAK 1 (Homo sapiens).
4.19

With Serine/threonine-protein kinase PAK 1 (Homo sapiens) as the test system, provide measured inhibition for this compound: COc1ccc(-c2nn3ncccc3c2-c2ccnc(Nc3ccc4c(c3)OCCO4)n2)cc1
3.86

Please report the measured inhibition for CCN(CC)S(=O)(=O)c1ccc(OC)c(Nc2ncc(-c3ccccc3)o2)c1 tested on Serine/threonine-protein kinase PAK 1 (Homo sapiens).
-1.78

Recall the reported inhibition of Fc1ccc(-c2nn3ncccc3c2-c2ccnc(Nc3ccc4c(c3)OCCO4)n2)cc1 when tested on Serine/threonine-protein kinase PAK 1 (Homo sapiens).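 Further: values are mean PAK1 inhibition from the GSK PKIS kinase inhibitor set screen.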
5.7

====

- system-name: High affinity nerve growth factor receptor (Homo sapiens) (UniProt P04629);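 further: each value is the mean percent inhibition of TRKA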
- Sequence (P04629 33-796 limits assumed): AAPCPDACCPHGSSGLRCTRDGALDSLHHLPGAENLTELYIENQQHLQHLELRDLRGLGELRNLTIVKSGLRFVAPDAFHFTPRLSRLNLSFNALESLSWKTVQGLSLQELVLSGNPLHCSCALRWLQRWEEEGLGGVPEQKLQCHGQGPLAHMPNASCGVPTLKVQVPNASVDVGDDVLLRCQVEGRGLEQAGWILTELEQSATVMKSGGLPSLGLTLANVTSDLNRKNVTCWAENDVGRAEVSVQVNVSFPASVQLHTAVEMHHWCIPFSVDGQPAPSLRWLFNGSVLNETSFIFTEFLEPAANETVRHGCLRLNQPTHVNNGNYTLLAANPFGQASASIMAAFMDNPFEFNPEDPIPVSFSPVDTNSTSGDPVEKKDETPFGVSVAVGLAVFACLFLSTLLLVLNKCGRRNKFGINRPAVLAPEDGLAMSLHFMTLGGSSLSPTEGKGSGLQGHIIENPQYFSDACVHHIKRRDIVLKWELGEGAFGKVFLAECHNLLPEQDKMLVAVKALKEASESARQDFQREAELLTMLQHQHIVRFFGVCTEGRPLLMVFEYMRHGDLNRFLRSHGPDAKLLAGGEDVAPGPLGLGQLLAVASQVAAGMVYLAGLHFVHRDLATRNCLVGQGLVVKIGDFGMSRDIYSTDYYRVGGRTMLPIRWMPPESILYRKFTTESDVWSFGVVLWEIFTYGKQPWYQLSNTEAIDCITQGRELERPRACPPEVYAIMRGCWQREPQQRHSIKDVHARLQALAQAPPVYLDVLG
- test-parameters: at 1 µM
quantity-name: inhibition (%)
Answer format: numeric, % implied, no suffix.

Give reported inhibition value for CN1CCC(n2cnc(-c3ccc(F)cc3)c2-c2ccnc(N)n2)CC1
3.59

Please report the measured inhibition for N#Cc1c(NC(=O)CN2CCOCC2)sc2c1CCCC2
0.84

Quote inhibition reported for CCc1nn2ncccc2c1-c1ccnc(NC2CC2)n1 please.
2.38

Give me measured inhibition, please, for this molecule: Cc1cccc(Nc2ncc(-c3ccccc3)o2)c1
6.23

Assign inhibition to the following record: CCNC(=O)O[C@H]1CN[C@H](C#Cc2cc3ncnc(Nc4ccc(OCc5cccc(F)c5)c(Cl)c4)c3s2)C1
3.06

Name the recorded inhibition of the item NS(=O)(=O)c1ccc(N/N=C2\C(=O)Nc3ccc4ncccc4c32)cc1 in your answer.
50.4

====

- Tested on: Epidermal growth factor receptor (Homo sapiens), P00533 [T790M]
- Sequence (P00533 whole entry T790M): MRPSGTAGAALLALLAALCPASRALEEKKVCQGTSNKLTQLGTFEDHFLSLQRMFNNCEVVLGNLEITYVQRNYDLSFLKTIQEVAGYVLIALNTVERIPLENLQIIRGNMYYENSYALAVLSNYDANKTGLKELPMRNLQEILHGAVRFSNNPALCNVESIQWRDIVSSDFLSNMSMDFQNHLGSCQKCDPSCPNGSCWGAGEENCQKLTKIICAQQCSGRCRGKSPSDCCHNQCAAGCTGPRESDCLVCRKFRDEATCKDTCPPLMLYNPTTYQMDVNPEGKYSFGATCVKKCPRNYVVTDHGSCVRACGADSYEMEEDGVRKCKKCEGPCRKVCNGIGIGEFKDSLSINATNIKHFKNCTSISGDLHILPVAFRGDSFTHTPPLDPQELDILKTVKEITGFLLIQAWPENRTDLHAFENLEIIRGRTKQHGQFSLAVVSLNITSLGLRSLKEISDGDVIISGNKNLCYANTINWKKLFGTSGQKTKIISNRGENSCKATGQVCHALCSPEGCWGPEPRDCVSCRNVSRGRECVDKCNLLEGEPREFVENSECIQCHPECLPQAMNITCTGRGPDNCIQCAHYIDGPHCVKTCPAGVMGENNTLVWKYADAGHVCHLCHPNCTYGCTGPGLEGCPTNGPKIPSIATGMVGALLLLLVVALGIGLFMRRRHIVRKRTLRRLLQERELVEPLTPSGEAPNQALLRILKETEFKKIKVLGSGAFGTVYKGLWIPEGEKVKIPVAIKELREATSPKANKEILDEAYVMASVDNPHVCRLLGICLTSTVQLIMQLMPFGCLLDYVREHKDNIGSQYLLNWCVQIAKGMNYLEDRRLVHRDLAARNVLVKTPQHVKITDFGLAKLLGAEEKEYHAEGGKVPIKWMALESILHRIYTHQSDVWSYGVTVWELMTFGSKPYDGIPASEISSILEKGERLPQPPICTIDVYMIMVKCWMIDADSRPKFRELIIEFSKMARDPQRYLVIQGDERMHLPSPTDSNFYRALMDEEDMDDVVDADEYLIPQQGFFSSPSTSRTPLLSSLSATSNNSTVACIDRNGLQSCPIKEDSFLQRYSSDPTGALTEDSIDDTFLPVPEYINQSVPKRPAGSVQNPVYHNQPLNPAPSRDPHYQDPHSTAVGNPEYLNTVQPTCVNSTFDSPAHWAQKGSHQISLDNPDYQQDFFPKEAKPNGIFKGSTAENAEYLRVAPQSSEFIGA
- test-parameters: at 1 µM
quantity-name: inhibition (%)
Only the number, expressed in %, is required.

Query inhibition for Cc1ccc(O)cc1Nc1ccnc2cc(-c3ccccn3)ccc12
15.3

Specify measured inhibition for CCNC(=O)O[C@H]1CN[C@H](C#Cc2cc3ncnc(Nc4ccc(OCc5cccc(F)c5)c(Cl)c4)c3s2)C1 .
10.6

Check the records and state inhibition for CNC(=O)c1cccc(C#Cc2cncnc2Nc2ccc(OCc3cccc(F)c3)c(Cl)c2)c1
4.1

Could you please provide reported inhibition for Cc1cccc(Nc2ncc(-c3ccccc3)o2)c1 ? Thanks!
2.62

Could you please provide reported inhibition for NS(=O)(=O)c1ccc(Nc2ncc(-c3ccccc3)o2)cc1 ? Thanks!
0.87

# return recorded inhibition for entry Clc1ccc(-c2nn3ncccc3c2-c2ccnc(Nc3ccccc3)n2)cc1
14.4

====

- system-name: Calcium/calmodulin-dependent protein kinase type II subunit alpha (Homo sapiens) (UniProt Q9UQM7);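 further: reported values are averages (mean inhibition of CAMK2A)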
- Sequence (Q9UQM7 whole entry): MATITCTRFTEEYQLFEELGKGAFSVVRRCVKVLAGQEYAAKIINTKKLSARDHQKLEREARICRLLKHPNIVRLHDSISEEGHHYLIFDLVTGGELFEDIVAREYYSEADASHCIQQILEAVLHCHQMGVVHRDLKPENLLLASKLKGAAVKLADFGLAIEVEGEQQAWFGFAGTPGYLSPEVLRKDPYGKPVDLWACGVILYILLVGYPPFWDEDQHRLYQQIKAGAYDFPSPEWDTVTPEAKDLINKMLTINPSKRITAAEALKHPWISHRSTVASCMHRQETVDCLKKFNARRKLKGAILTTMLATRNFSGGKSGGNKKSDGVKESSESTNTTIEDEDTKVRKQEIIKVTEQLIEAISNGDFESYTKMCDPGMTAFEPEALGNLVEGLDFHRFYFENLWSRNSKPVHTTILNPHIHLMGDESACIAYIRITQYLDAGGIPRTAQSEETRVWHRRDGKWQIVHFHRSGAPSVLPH
- test-parameters: at 0.1 µM
quantity-name: inhibition (%)
The figure you give is taken to be in %; do not add the unit.

For the compound Cc1ccc2c(-c3ccnc(Nc4ccccc4)n3)c(-c3ccc(F)cc3)nn2n1 , report inhibition.
4.27

Determine its reported inhibition: COc1cc2ncn(-c3cc(OCc4ccccc4C(F)(F)F)c(C(=O)N(C)C)s3)c2cc1OC
-1.75

For COc1cc2c(cc1Nc1nc(Nc3ccsc3C(N)=O)c3cc[nH]c3n1)N(C(=O)CN(C)C)CCC2(C)C , write its inhibition.
4.03

Tell me its inhibition given CCCN1CCC(c2ccc(Nc3nc(Nc4cc(F)ccc4C(N)=O)c4cc[nH]c4n3)c(OC)c2)CC1 as the entry.
8.79

Write down inhibition measured for item Cc1cccc(Nc2ncc(-c3ccccc3)o2)c1
4.05

Let me know recorded inhibition for CC1=C(C(=O)Nc2cc(Cl)c3[nH]ncc3c2)C(c2ccc(C(F)(F)F)cc2)CC(=O)N1 (stereo not drawn) , thanks.
1.03

Retrieve inhibition measured for CC(=O)Nc1cccc(C#Cc2cncnc2Nc2ccc(OCc3cccc(F)c3)c(Cl)c2)c1 and print it.
4.42

# return recorded inhibition for input CCc1nn2ncccc2c1-c1ccnc(NC2CC2)n1
2.89

Give inhibition for the following compound: CCn1cc(-c2ccnc3[nH]ccc23)c(-c2cccc(NC(=O)Nc3ccc(OCc4ccccc4)cc3)c2)n1
1.2

State its inhibition: CNC(=O)c1cncc(/C=C/c2ccccc2Cl)c1
1.53

Identify the reported inhibition for the following entry. COc1ccc(-c2cc(-c3c[nH]nc3-c3ccccn3)ccn2)cc1
4.66

Please look at this compound and report its inhibition: COc1cc(N2CCN(C(C)C)CC2)ccc1Nc1nc(Nc2ccc(F)cc2C(N)=O)c2cc[nH]c2n1
9.8

Look up inhibition of COc1cccc(-c2c[nH]c3c(N/N=C/c4ccncc4)ncnc23)c1 and report it.
3.48

Output measured inhibition for this item: NS(=O)(=O)c1ccc(Nc2ncc(-c3ccccc3)o2)cc1
4.27

Consider the compound Fc1cccc(COc2ccc(Nc3ncnc4sc(-c5ccco5)cc34)cc2Cl)c1 and give its recorded inhibition.
1.16

Return inhibition for the following compound: CCn1c(-c2nonc2N)nc2cnc(Oc3cccc(NC(=O)c4ccc(N(C)C)cc4)c3)cc21
0.79

Input COc1ccc(-c2oc3ncnc(N)c3c2-c2ccc(NC(=O)Nc3cc(C(F)(F)F)ccc3F)cc2)cc1 , output reported inhibition.
4.73

Determine from records and report inhibition for CCOc1ccc2c(-c3ccnc(Nc4cccc(C(F)(F)F)c4)n3)cnn2n1
0.19

Quickly give me recorded inhibition for COc1cccc(-n2ncc3c(N/N=C/c4ccc(F)cc4)ncnc32)c1
3.15

Name the recorded inhibition of the item Nc1ncc(-c2cccc(S(N)(=O)=O)c2)c2scc(-c3ccc(F)c(Cl)c3)c12 in your answer.
3.36

Item COc1cc(/C=N/Nc2ncnc3[nH]ncc23)ccc1O : provide inhibition
2.62

Look up inhibition of COc1ccc(-c2nn3ncccc3c2-c2ccnc(Nc3ccc4c(c3)OCCO4)n2)cc1 and report it.
0.38

Read the entry O=C(O[C@H]1CN[C@H](C#Cc2cc3ncnc(Nc4ccc(Cc5ccccc5)cc4)c3s2)C1)N1CCOCC1 and write its reported inhibition.
0.64
